# credit: PubChem BioAssay AID1159580

Listed next: entries and their corresponding normalized growth.
# ASSAY PROTOCOL: chemical genetic growth profiling, strain panel (AID 1159580);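 further: tested at 20 µM; growth read once vehicle control cultures reached saturation at 30 °C; 1 = growth at the plate median or of vehicle wells; lower values mean less growth of the strain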
# COND: S. cerevisiae deletion strains, growth OD, locus YPL240C, strain hsp82, active compounds read low
In all, about 5,500 compounds went through this assay and about 2,000 (36%) were called active. Another 18% or so got no clear call; they are omitted. The list shows a part of the results.
Please give the numeric answer without any surrounding text.

{"MOLECULE": "CC(C)(O)[C@@H]1CC[C@](C)([C@H]2[C@@H](O)C[C@@]3(C)C4C[C@H](O[C@@H]5O[C@H](CO)[C@@H](O)[C@H](O)[C@H]5O)C5C(C)(C)[C@@H](O[C@@H]6OC[C@@H](O)[C@H](O)[C@H]6O)CC[C@@]56C[C@@]46CC[C@]23C)O1 (some centres not stated)", "normalized growth": 0.989}

Q: Returns the measured normalized growth for the input molecule. Input: C[C@@H]1CC[C@@]2(OC1)OC1C(O)C3C4CC[C@H]5C[C@H](O[C@@H]6O[C@H](CO)[C@H](O[C@@H]7O[C@H](CO)[C@@H](O)[C@H](O[C@@H]8OC[C@@H](O)[C@H](O)[C@H]8O)[C@H]7O[C@@H]7O[C@H](CO)[C@H](O)[C@H](O[C@@H]8O[C@H](CO)[C@@H](O)[C@H](O)[C@H]8O)[C@H]7O)[C@H](O)[C@H]6O)[C@H](O)C[C@]5(C)C4CC[C@]3(C)C1[C@@H]2C (some centres not stated)
Ans: 1

---

# ASSAY PROTOCOL: chemical genetic growth profiling, strain panel (AID 1159580)
# COND: S. cerevisiae deletion strains, growth OD, locus YOR270C, strain vph1, active compounds read low
Screen size: about 5,500 compounds; about 2,000 (36%) were called active. About 18% were inconclusive and are not listed. This is one part of the list.
For each record, check the reported normalized growth: if it is below 0.9 write True, else write False.

{"COMPOUND": "O=c1[nH]c2cc(Cl)c(Cl)cc2[nH]c1=O", "CLASSIFICATION": "False"}
{"COMPOUND": "COc1c(O)cccc1O", "CLASSIFICATION": "False"}
{"COMPOUND": "COc1cc2c(cc1OC)-c1cc3ccc(OC)c(OC)c3c[n+]1CC2", "CLASSIFICATION": "False"}
{"COMPOUND": "COc1ccc(-c2cc(=O)c3ccccc3o2)cc1OC", "CLASSIFICATION": "True"}

Q: Lab note: confirm whether the reported normalized growth for this compound is below 0.9, equality not counting. compound: COc1ccc(-c2cc(=O)c3cc(OC)ccc3o2)cc1
Ans: True

---

# ASSAY PROTOCOL: chemical genetic growth profiling, strain panel (AID 1159580)
# COND: S. cerevisiae deletion strains, growth OD, locus YBL061C, strain skt5, active compounds read low
Screen size: about 5,500 compounds; about 2,000 (36%) were called active. Another 18% or so got no clear call; they are omitted. The list shows a part of the results.
Please respond with 1 (yes) when measured normalized growth is strictly beneath 1, and with 0 (no) in all other cases.

Illustrative cases are given below, each with its answer.
{"MOLECULE": "CC(C(=O)O)[C@H]1CCC2C3CC=C4C[C@@H](O)CC[C@]4(C)C3CC[C@@]21C (stereo partly drawn)", "CLASSIFICATION": "0 (no)"}
{"MOLECULE": "N[C@H](CO)Cc1ccccc1", "CLASSIFICATION": "0 (no)"}

Q: Confirm or reject: normalized growth of O=c1c2ccccc2oc2ccccc12 lies strictly below 1
Ans: 1 (yes)

Q: Does the reported normalized growth of the following molecule sit strictly below 1? CC(=O)OCC(=O)[C@@]1(O)CCC2C3CC[C@@H]4C[C@H](O)CC[C@]4(C)C3C(=O)C[C@@]21C (stereo partly drawn)
Ans: 0 (no)

---

# ASSAY PROTOCOL: chemical genetic growth profiling, strain panel (AID 1159580);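 further: tested at 20 µM; growth read once vehicle control cultures reached saturation at 30 °C; 1 = growth at the plate median or of vehicle wells; lower values mean less growth of the strain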
# COND: S. cerevisiae deletion strains, growth OD, locus YHR079C, strain IRE1
The whole screen tested about 5,500 compounds, of which about 2,000 (36%) were called active. Inconclusive results (about 18%) are left out. Cut-off read from the data, not from the text of the source: active = normalized growth mostly below about 0.91 (no sharp cut-off); inconclusive = no clear call, values can overlap the other calls; inactive = mostly above about 0.92. Some of the results follow.
Valid outcomes are listed here; reply with one: 1 (yes) (active), 0 (no) (inactive)

Answered examples (6):
{"MOLECULE": "CC(=O)O[C@H]1C[C@@H](O)C(C)(C)C2C[C@@H](OC(C)=O)[C@]3(C)C(CC[C@@]4(C)[C@H](c5ccoc5)OC(=O)C5OC543)[C@]21C (stereo partly specified)", "CLASSIFICATION": "0 (no)"}
{"MOLECULE": "O=C(NNC(=O)c1csc(-c2cccs2)n1)c1ccc(C(F)(F)F)cc1", "CLASSIFICATION": "1 (yes)"}
{"MOLECULE": "O=C(O)/C=C(\\CC(=O)O)C(=O)O", "CLASSIFICATION": "0 (no)"}
{"MOLECULE": "CN(C)CCC=C1c2ccccc2C=Cc2ccccc21", "CLASSIFICATION": "0 (no)"}
{"MOLECULE": "O=C(/C=C/c1ccccc1)c1ccc(O)cc1", "CLASSIFICATION": "1 (yes)"}
{"MOLECULE": "O=C(NCc1cccs1)c1csc(Cc2c(Cl)cccc2Cl)n1", "CLASSIFICATION": "0 (no)"}

Q: Outcome? CN(C)CCC=C1c2ccccc2CCc2ccccc21
Ans: 0 (no)

Q: Hello, I am checking results. What call was entered for COc1ccc(C(=O)/C=C/c2ccccc2)cc1 ?
Ans: 1 (yes)

Q: Short answer needed: outcome of this test for CNCCC=C1c2ccccc2CCc2ccccc21 ?
Ans: 0 (no)

Q: Recorded test call requested for COc1cc([C@@H]2c3cc4c(cc3[C@H](OC(C)=O)[C@H]3COC(=O)[C@H]23)OCO4)cc(OC)c1OC
Ans: 0 (no)

Q: Could you kindly confirm the outcome this assay logged for CN(C)CC/C=C1/c2ccccc2COc2ccccc21 ?
Ans: 0 (no)

---

Here, each record is paired with measured normalized growth data.
# ASSAY PROTOCOL: chemical genetic growth profiling, strain panel (AID 1159580);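 further: tested at 20 µM; growth read once vehicle control cultures reached saturation at 30 °C; 1 = growth at the plate median or of vehicle wells; lower values mean less growth of the strain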
# COND: S. cerevisiae deletion strains, growth OD, locus YML094W, strain GIM5, active compounds read low
In all, about 5,500 compounds went through this assay and about 2,000 (36%) were called active. Not shown: some 18% with an inconclusive outcome. The list shows a part of the results.
Would you mind answering with just the numeric figure?

{"COMPOUND": "Cc1c(C)c(C)c(CO)c(C)c1C", "normalized growth": 0.996}

Q: Quick check: normalized growth of CN1CNc2c(c(=O)n(C)c(=O)n2C)C1 ?
Ans: 0.974

Q: Quick one: normalized growth for N#CC1COc2ccccc2O1 (configuration not stated) ?
Ans: 1.01

Q: Please give the measured normalized growth for this compound: Cc1cc(Br)c(OCC(=O)NN)c2c1CCC2
Ans: 0.975

Q: Query: normalized growth; subject: O=C(NNC(=O)c1ccccc1[N+](=O)[O-])c1ccc(Cl)cc1
Ans: 1.02

Q: Entry CC(C)(C)OC(=O)NC1CCN(C(=O)c2ccc(Cl)cc2Cl)CC1 : reported normalized growth = ?
Ans: 1.04

Q: Returns the measured normalized growth for the input compound. Input: Cc1ccc(OCC(=O)NN)c2c1CCC2
Ans: 1.01

---

# ASSAY PROTOCOL: chemical genetic growth profiling, strain panel (AID 1159580);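 further: tested at 20 µM; growth read once vehicle control cultures reached saturation at 30 °C; 1 = growth at the plate median or of vehicle wells; lower values mean less growth of the strain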
# COND: S. cerevisiae deletion strains, growth OD, locus YEL037C, strain rad23
Among all 5,500 compounds or so, about 2,000 (36%) were called active. Inconclusive results (about 18%) are left out. Cut-off read from the data, not from the text of the source: active = normalized growth mostly below about 0.91 (no sharp cut-off); inconclusive = no clear call, values can overlap the other calls; inactive = mostly above about 0.92. The list shows a part of the results.
API: response.call in yes (1) = active, no (0) = inactive

{"COMPOUND": "CC(=O)Oc1cc(-c2coc3cc(OC(C)=O)c(OC(C)=O)c(OC(C)=O)c3c2=O)cc(OC(C)=O)c1OC(C)=O", "CLASSIFICATION": "yes (1)"}
{"COMPOUND": "CC(=O)Oc1ccc(-c2cc(=O)c3c(OC(C)=O)cc(OC(C)=O)cc3o2)cc1", "CLASSIFICATION": "no (0)"}
{"COMPOUND": "CCOC(=O)C1C(C=C(C)C)C1(C)C (stereo unspecified)", "CLASSIFICATION": "no (0)"}

Q: Short answer needed: outcome of this test for CC(C)=CCc1c2c(c(O)c3c(=O)c(O)c(-c4ccccc4)oc13)C=CC(C)(C)O2 ?
Ans: yes (1)

Q: GET /call?item= O=c1c2ccccc2[se]n1-c1ccccc1 returns the recorded outcome of this test.
Ans: yes (1)

Q: What classification did C/C(=C\C(=O)OCCCCCCCCC(=O)O)C[C@@H]1OC[C@H](C[C@@H]2O[C@H]2[C@@H](C)[C@H](C)O)[C@@H](O)[C@H]1O end up with in this test?
Ans: no (0)

Q: Tell me the assay call for COc1ccc(-c2cc(=O)c3c(OC)c(OC)c(OC)c(OC)c3o2)cc1 please.
Ans: no (0)

Q: What call does the record list for O=c1c(-c2cc(O)c(O)c(O)c2)coc2cc(O)c(O)c(O)c12 ?
Ans: no (0)

Q: Can you look up the reported call for CC1=C2C(=CO[C@H](C)[C@H]2C)C(=O)C(C(=O)O)=C1O for me?
Ans: no (0)

Q: # fetch the recorded call for Nc1ccc(C(=O)O)c(O)c1 here
Ans: no (0)
